- target.entity: CD64 (FcγRIa) (human)
- protocol.summary: Fc receptor binding, method not stated
parameter.measured: pKd
In simple prose, pKd is minus the logarithm base ten of a concentration in moles per litre.

# input Recorded pKd for GASDALIE modified IgG1f antibody (human IgG1, 214R/356E/358M allotype; G236A, S239D, A330L and I332E) , please?
# output 9.22

* * *

- target.entity: CD32-R131 (FcγRIIa) (human) (UniProt P12318)
- Sequence (P12318 34-217 H167R limits assumed): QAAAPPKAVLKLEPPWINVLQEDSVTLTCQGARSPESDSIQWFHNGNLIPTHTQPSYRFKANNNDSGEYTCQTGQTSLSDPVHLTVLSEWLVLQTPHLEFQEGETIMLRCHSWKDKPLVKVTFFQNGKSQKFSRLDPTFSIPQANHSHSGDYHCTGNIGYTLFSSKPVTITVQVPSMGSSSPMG
- protocol.summary: Fc receptor binding, method not stated
parameter.measured: pKd
In simple prose, pKd is minus the logarithm base ten of a concentration in moles per litre.

# input Provide value of pKd for this record tested with CD32-R131 (FcγRIIa) (human) (UniProt P12318): GASDALIE modified IgG1f antibody (human IgG1, 214R/356E/358M allotype; G236A, S239D, A330L and I332E)
# output 7.00
